Values compiled from patent US9233982B2.

target: BACE-1 (Homo sapiens); assay: LanthaScreen BACE1 biochemical assay (TR-FRET)
quantityName: IC50

In the examples that follow, each entry is paired with its recorded IC50.
| molecule | readoutValue |
| --- | --- |
| NC1=NC2(CCCc3sc(-c4ccc5c(c4)OCO5)cc32)CCS1 (stereo not shown) [Example 8] | 5 to 65 µM |
| N#Cc1ccc(F)c(-c2cc3c(s2)CCCC32CCSC(N)=N2)c1 (stereo not shown) [Example 15] | 1 to 5 µM |
| N#Cc1cccc(-c2cc3c(s2)C2(CCC3)CCSC(N)=N2)c1 (stereo not shown) [Example 62] | 5 to 65 µM |

The measured IC50 associated with NC1=NC2(CCCc3sc(-c4cccc(-c5ccccn5)c4)cc32)CCS1 (stereo not shown) [Example 36] reads 5 to 65 µM

----------
molecular target: BACE-1 (Homo sapiens, UniProt P56817); experiment: LanthaScreen BACE1 biochemical assay (TR-FRET)
Sequence (P56817 46-501): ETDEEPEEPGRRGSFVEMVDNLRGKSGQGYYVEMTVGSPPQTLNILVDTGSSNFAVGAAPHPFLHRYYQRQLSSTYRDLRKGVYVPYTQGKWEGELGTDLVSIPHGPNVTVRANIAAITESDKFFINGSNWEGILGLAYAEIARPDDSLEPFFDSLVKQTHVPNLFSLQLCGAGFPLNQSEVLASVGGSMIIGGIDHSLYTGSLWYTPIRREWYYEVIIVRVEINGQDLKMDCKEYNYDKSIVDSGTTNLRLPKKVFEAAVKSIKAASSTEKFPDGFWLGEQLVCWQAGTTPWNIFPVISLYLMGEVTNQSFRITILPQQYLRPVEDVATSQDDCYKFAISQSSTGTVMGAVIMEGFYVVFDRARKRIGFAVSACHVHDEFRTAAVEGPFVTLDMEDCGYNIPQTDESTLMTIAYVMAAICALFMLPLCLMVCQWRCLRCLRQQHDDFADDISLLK
pIC50: −log10 of the molar value.
quantityName: pIC50

| molecule | target | pIC50 |
| --- | --- | --- |
| COc1cccc(-c2cccc(-c3cc4c(s3)CCCC43CCSC(N)=N3)c2)c1 (stereo not drawn) | BACE-1 (Homo sapiens, UniProt P56817) | 5.30 to 6.00 |

The measured pIC50 associated with N#Cc1cccc(-c2cc3c(s2)CCCC32N=C(N)N(Cc3ccccc3)C2=O)c1 (stereo not drawn) reads > 6.00

The measured pIC50 associated with N#Cc1cncc(-c2cc3c(s2)CCCC32CCSC(N)=N2)c1 (stereo not drawn) reads 4.19 to 5.30

The measured pIC50 associated with NC1=NC2(CCCc3sc(-c4cccc(Oc5ccccc5)c4)cc32)CCS1 (stereo not drawn) reads 5.30 to 6.00

The measured pIC50 associated with N#Cc1cccc(-c2cc3c(s2)CCCC32CCSC(N)=N2)c1 (stereo in doubt) [Example 2] reads > 6.00

The measured pIC50 associated with CN1C(=O)C2(CCCc3sc(-c4cccc(Cl)c4)cc32)N=C1N (stereo not drawn) reads 5.30 to 6.00

The measured pIC50 associated with NC1=NC2(CCCc3sc(-c4ccc(F)cc4)cc32)CCS1 (stereo not drawn) reads 4.19 to 5.30

The measured pIC50 associated with COc1ccc(-c2cccc(-c3cc4c(s3)CC(c3ccccc3)CC43CCSC(N)=N3)c2)cc1 (racemic) reads 5.30 to 6.00

The measured pIC50 associated with COc1ccc(-c2cccc(-c3cc4c(s3)CCCC43CCSC(N)=N3)c2)cc1 (stereo not drawn) reads 5.30 to 6.00

The measured pIC50 associated with NC1=NC2(CCCc3sc(-c4cccnc4)cc32)CCS1 (stereo not drawn) reads 4.19 to 5.30

The measured pIC50 associated with N#Cc1cccc(-c2cc3c(s2)CCCC32N=C(N)N(Cc3ccccc3)O2)c1 (stereo not drawn) reads > 6.00

The measured pIC50 associated with N#Cc1cc(-c2cc3c(s2)CCCC32CCSC(N)=N2)ccn1 (stereo not drawn) reads 4.19 to 5.30

The measured pIC50 associated with NC1=NC2(CCCc3sc(-c4cccc(C(F)(F)F)c4)cc32)ON1Cc1ccccc1 (stereo not drawn) reads 5.30 to 6.00

The measured pIC50 associated with CN1C(=O)[C@]2(CCCc3sc(-c4cccc(C#N)c4)cc32)N=C1N (single isomer, unassigned) reads 4.19 to 5.30

The measured pIC50 associated with COc1ccc(-c2cccc(-c3cc4c(s3)CC(C)(C)CC43CCSC(N)=N3)c2)cc1 (stereo not drawn) reads 5.30 to 6.00

The measured pIC50 associated with N#Cc1cc(Cl)cc(-c2cc3c(s2)CCCC32CCSC(N)=N2)c1 (stereo not drawn) reads 5.30 to 6.00

The measured pIC50 associated with NC1=NC2(CCCc3sc(-c4cccc(CC(F)(F)F)c4)cc32)CCS1 (stereo not drawn) reads 4.19 to 5.30

The measured pIC50 associated with CN1C(=O)C2(CCCc3sc(-c4cccnc4)cc32)N=C1N (stereo not drawn) reads 4.19 to 5.30
